# EXPERIMENT: Biodistribution in PC-3 tumor-bearing CB17-SCID mice
# Format: in vivo
# PROTOCOL CONDITIONS: CB17-SCID, mouse, tumor and liver, iv, 100 pmol, total radioactivity; ^68Ga-labeled; 1 h p.i.; n = 4; read-out: Tumor-to-Liver ratio
Starred links: 1 amine or outer side, 2 acyl side, 3 side chain; linkers in the order of their positions; H or OH if unused. Non-standard residues stand in square brackets, D forms with d. Residues, ends and D or L forms follow the SMILES beside them. *: point of attachment. DOTA = O=C(O)CN1CCN(CC(=O)O)CCN(CC(=O)*)CCN(CC(=O)O)CC1; Sta = CC(C)C[C@H](N)[C@@H](O)CC(=O)O; Bta = N[C@@H](Cc1csc2ccccc12)C(=O)O; X1 = O=C(CN1CCC(N[*:1])CC1)[*:2]; hSer = N[C@@H](CCO)C(=O)O
ENDPOINT NAME: tissue to tissue ratio at 1 h
Numbers only.

COMPOUND: CC(C)C[C@H](NC(=O)C[C@H](O)[C@H](CC(C)C)NC(=O)[C@H](Cc1c[nH]cn1)NC(=O)CNC(=O)[C@@H](NC(=O)[C@H](C)NC(=O)[C@H](Cc1c[nH]c2ccccc12)NC(=O)[C@H](CCO)NC(=O)[C@@H](Cc1ccccc1)NC(=O)CN1CCC(NC(=O)CN2CCN(CC(=O)O)CCN(CC(=O)O)CCN(CC(=O)O)CC2)CC1)C(C)C)C(N)=O [[^68Ga]Ga-[Hse^7]RM2, metal not drawn] ({DOTA}-[X1][dF][hSer]WAVGH[Sta]L-NH2)
tissue to tissue ratio at 1 h: 5.1

Please turn your attention to the following entry.
*Q* Fill in the blank: the reported tissue to tissue ratio at 1 h of CC(C)C[C@H](NC(=O)C[C@H](O)[C@H](CC(C)C)NC(=O)[C@H](Cc1c[nH]cn1)NC(=O)CNC(=O)[C@@H](NC(=O)[C@H](C)NC(=O)[C@H](Cc1csc2ccccc12)NC(=O)[C@H](CCC(N)=O)NC(=O)[C@@H](Cc1ccccc1)NC(=O)CN1CCC(NC(=O)CN2CCN(CC(=O)O)CCN(CC(=O)O)CCN(CC(=O)O)CC2)CC1)C(C)C)C(N)=O [[^68Ga]Ga-[Bta^8]RM2, metal not drawn] ({DOTA}-[X1][dF]Q[Bta]AVGH[Sta]L-NH2) is ____.
*A* 10.7

###

# EXPERIMENT: Biodistribution in PC-3 tumor-bearing CB17-SCID mice
# Assay type: in vivo
# PROTOCOL CONDITIONS: mouse, tumor, intravenous, 100 pmol, ^177Lu-labeled; 1 h p.i.; 100 pmol; n = 4; read-out: Uptake in Tumor
Starred links: 1 amine or outer side, 2 acyl side, 3 side chain; linkers in the order of their positions; H or OH if unused. Non-standard residues stand in square brackets, D forms with d. Residues, ends and D or L forms follow the SMILES beside them. *: point of attachment. DOTA = O=C(O)CN1CCN(CC(=O)O)CCN(CC(=O)*)CCN(CC(=O)O)CC1; Sta = CC(C)C[C@H](N)[C@@H](O)CC(=O)O; Bta = N[C@@H](Cc1csc2ccccc12)C(=O)O; X1 = O=C(CN1CCC(N[*:1])CC1)[*:2]; hSer = N[C@@H](CCO)C(=O)O
Exercise: state measured tissue uptake at 1 h for each of the compounds provided.
Give bare numbers, in %ID/g.

COMPOUND: CC(C)C[C@H](NC(=O)C[C@H](O)[C@H](CC(C)C)NC(=O)[C@H](Cc1c[nH]cn1)NC(=O)CNC(=O)[C@@H](NC(=O)[C@H](C)NC(=O)[C@H](Cc1csc2ccccc12)NC(=O)[C@H](CCC(N)=O)NC(=O)[C@@H](Cc1ccccc1)NC(=O)CN1CCC(NC(=O)CN2CCN(CC(=O)O)CCN(CC(=O)O)CCN(CC(=O)O)CC2)CC1)C(C)C)C(N)=O [[^177Lu]Lu-[Bta^8]RM2, metal not drawn] ({DOTA}-[X1][dF]Q[Bta]AVGH[Sta]L-NH2)
DATA VALUE: 12.1

*Q* Query: tissue uptake at 1 h; subject: CC(C)C[C@H](NC(=O)C[C@H](O)[C@H](CC(C)C)NC(=O)[C@H](Cc1c[nH]cn1)NC(=O)CNC(=O)[C@@H](NC(=O)[C@H](C)NC(=O)[C@H](Cc1c[nH]c2ccccc12)NC(=O)[C@H](CCO)NC(=O)[C@@H](Cc1ccccc1)NC(=O)CN1CCC(NC(=O)CN2CCN(CC(=O)O)CCN(CC(=O)O)CCN(CC(=O)O)CC2)CC1)C(C)C)C(N)=O [[^177Lu]Lu-[Hse^7]RM2, metal not drawn] ({DOTA}-[X1][dF][hSer]WAVGH[Sta]L-NH2)
*A* 16.6

###

# EXPERIMENT: Biodistribution in PC-3 tumor-bearing CB17-SCID mice
# Format: in vivo
# PROTOCOL CONDITIONS: mouse, muscle, intravenous, 100 pmol, ^177Lu-labeled; 24 h p.i.; 100 pmol; n = 4; read-out: Uptake in Muscle
Starred links: 1 amine or outer side, 2 acyl side, 3 side chain; linkers in the order of their positions; H or OH if unused. Non-standard residues stand in square brackets, D forms with d. Residues, ends and D or L forms follow the SMILES beside them. *: point of attachment. DOTA = O=C(O)CN1CCN(CC(=O)O)CCN(CC(=O)*)CCN(CC(=O)O)CC1; Sta = CC(C)C[C@H](N)[C@@H](O)CC(=O)O; Bta = N[C@@H](Cc1csc2ccccc12)C(=O)O; X1 = O=C(CN1CCC(N[*:1])CC1)[*:2]; hSer = N[C@@H](CCO)C(=O)O
Exercise: for every item that follows, state its recorded tissue uptake at 24 h.
Give bare numbers, in %ID/g.

MOLECULE: CC(C)C[C@H](NC(=O)C[C@H](O)[C@H](CC(C)C)NC(=O)[C@H](Cc1c[nH]cn1)NC(=O)CNC(=O)[C@@H](NC(=O)[C@H](C)NC(=O)[C@H](Cc1c[nH]c2ccccc12)NC(=O)[C@H](CCO)NC(=O)[C@@H](Cc1ccccc1)NC(=O)CN1CCC(NC(=O)CN2CCN(CC(=O)O)CCN(CC(=O)O)CCN(CC(=O)O)CC2)CC1)C(C)C)C(N)=O [[^177Lu]Lu-[Hse^7]RM2, metal not drawn] ({DOTA}-[X1][dF][hSer]WAVGH[Sta]L-NH2)
ENDPOINT NAME: tissue uptake at 24 h
DATA VALUE: 0.01

Attention now turns to another entry.
*Q* Requested field: tissue uptake at 24 h. Item: CC(C)C[C@H](NC(=O)C[C@H](O)[C@H](CC(C)C)NC(=O)[C@H](Cc1c[nH]cn1)NC(=O)CNC(=O)[C@@H](NC(=O)[C@H](C)NC(=O)[C@H](Cc1csc2ccccc12)NC(=O)[C@H](CCC(N)=O)NC(=O)[C@@H](Cc1ccccc1)NC(=O)CN1CCC(NC(=O)CN2CCN(CC(=O)O)CCN(CC(=O)O)CCN(CC(=O)O)CC2)CC1)C(C)C)C(N)=O [[^177Lu]Lu-[Bta^8]RM2, metal not drawn] ({DOTA}-[X1][dF]Q[Bta]AVGH[Sta]L-NH2)
*A* 0.02

###

# STUDY SYSTEM: GRPR (Homo sapiens, UniProt P30550)
# Construct: host or cells: PC-3 cells
# Sequence (P30550 whole entry): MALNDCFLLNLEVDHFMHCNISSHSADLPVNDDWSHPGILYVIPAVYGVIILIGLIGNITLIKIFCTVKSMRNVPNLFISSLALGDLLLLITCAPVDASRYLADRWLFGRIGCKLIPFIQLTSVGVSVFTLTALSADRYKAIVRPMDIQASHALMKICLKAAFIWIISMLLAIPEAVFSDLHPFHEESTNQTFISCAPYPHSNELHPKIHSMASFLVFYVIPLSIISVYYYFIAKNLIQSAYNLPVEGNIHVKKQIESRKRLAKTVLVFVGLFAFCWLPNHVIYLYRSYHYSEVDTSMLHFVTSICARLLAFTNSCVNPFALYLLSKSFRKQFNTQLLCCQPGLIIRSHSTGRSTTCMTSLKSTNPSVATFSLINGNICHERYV
# EXPERIMENT: GRPR affinity (IC50), competitive binding on PC-3 cells vs [3-[^125I]I-D-Tyr^6]MJ9
# PROTOCOL CONDITIONS: Cu-complexed, 2 h, rt, n = 3, read-out: IC50 (nM), Cu-labeled
Starred links: 1 amine or outer side, 2 acyl side, 3 side chain; linkers in the order of their positions; H or OH if unused. Non-standard residues stand in square brackets, D forms with d. Residues, ends and D or L forms follow the SMILES beside them. *: point of attachment. DOTA = O=C(O)CN1CCN(CC(=O)O)CCN(CC(=O)*)CCN(CC(=O)O)CC1; NODAGA = O=C(O)CN1CCN(CC(=O)O)CCN(C(CCC(=O)*)C(=O)O)CC1; NOTA = O=C(O)CN1CCN(CC(=O)O)CCN(CC(=O)*)CC1; Sta = CC(C)C[C@H](N)[C@@H](O)CC(=O)O; Bta = N[C@@H](Cc1csc2ccccc12)C(=O)O; X1 = O=C(CN1CCC(N[*:1])CC1)[*:2]; hSer = N[C@@H](CCO)C(=O)O
Exam item: assign Satisfied to entries whose IC50 is below 10 nM and Not satisfied to entries at or above 10 nM. Note that a value of exactly 10 nM receives Not satisfied.

MOLECULE: CC(C)C[C@H](NC(=O)C[C@H](O)[C@H](CC(C)C)NC(=O)[C@H](Cc1c[nH]cn1)NC(=O)CNC(=O)[C@@H](NC(=O)[C@H](C)NC(=O)[C@H](Cc1c[nH]c2ccccc12)NC(=O)[C@H](CCO)NC(=O)[C@@H](Cc1ccccc1)NC(=O)CN1CCC(NC(=O)CN2CCN(CC(=O)O)CCN(CC(=O)O)CC2)CC1)C(C)C)C(N)=O [NOTA-[des-DOTA, Hse^7]RM2] ({NOTA}-[X1][dF][hSer]WAVGH[Sta]L-NH2)
ASSIGNED CATEGORY: Not satisfied

MOLECULE: CC(C)C[C@H](NC(=O)C[C@H](O)[C@H](CC(C)C)NC(=O)[C@H](Cc1c[nH]cn1)NC(=O)CNC(=O)[C@@H](NC(=O)[C@H](C)NC(=O)[C@H](Cc1c[nH]c2ccccc12)NC(=O)[C@H](CCO)NC(=O)[C@@H](Cc1ccccc1)NC(=O)CN1CCC(NC(=O)CN2CCN(CC(=O)O)CCN(CC(=O)O)CCN(CC(=O)O)CC2)CC1)C(C)C)C(N)=O [[Hse^7]RM2] ({DOTA}-[X1][dF][hSer]WAVGH[Sta]L-NH2)
ASSIGNED CATEGORY: Not satisfied

MOLECULE: CC(C)C[C@H](NC(=O)C[C@H](O)[C@H](CC(C)C)NC(=O)[C@H](Cc1c[nH]cn1)NC(=O)CNC(=O)[C@@H](NC(=O)[C@H](C)NC(=O)[C@H](Cc1csc2ccccc12)NC(=O)[C@H](CCC(N)=O)NC(=O)[C@@H](Cc1ccccc1)NC(=O)CN1CCC(NC(=O)CN2CCN(CC(=O)O)CCN(CC(=O)O)CCN(CC(=O)O)CC2)CC1)C(C)C)C(N)=O [[Bta^8]RM2] ({DOTA}-[X1][dF]Q[Bta]AVGH[Sta]L-NH2)
ASSIGNED CATEGORY: Satisfied

MOLECULE: CC(C)C[C@H](NC(=O)C[C@H](O)[C@H](CC(C)C)NC(=O)[C@H](Cc1c[nH]cn1)NC(=O)CNC(=O)[C@@H](NC(=O)[C@H](C)NC(=O)[C@H](Cc1csc2ccccc12)NC(=O)[C@H](CCC(N)=O)NC(=O)[C@@H](Cc1ccccc1)NC(=O)CN1CCC(NC(=O)CN2CCN(CC(=O)O)CCN(CC(=O)O)CC2)CC1)C(C)C)C(N)=O [NOTA-[des-DOTA, Bta^8]RM2] ({NOTA}-[X1][dF]Q[Bta]AVGH[Sta]L-NH2)
ASSIGNED CATEGORY: Satisfied

Consider the record given below.
*Q* IC50 strictly < 10 nM for this molecule? CC(C)C[C@H](NC(=O)C[C@H](O)[C@H](CC(C)C)NC(=O)[C@H](Cc1c[nH]cn1)NC(=O)CNC(=O)[C@@H](NC(=O)[C@H](C)NC(=O)[C@H](Cc1c[nH]c2ccccc12)NC(=O)[C@H](CCO)NC(=O)[C@@H](Cc1ccccc1)NC(=O)CN1CCC(NC(=O)CCC(C(=O)O)N2CCN(CC(=O)O)CCN(CC(=O)O)CC2)CC1)C(C)C)C(N)=O (stereo partly drawn) [NODAGA-[des-DOTA, Hse^7]RM2] ({NODAGA}-[X1][dF][hSer]WAVGH[Sta]L-NH2)
*A* Not satisfied
